Recorded log10(IC50), one value per entry.
# SYSTEM: KDM5A (Homo sapiens, UniProt P29375)
# Construct: Full length KDM5A enzyme was expressed and purified inhouse; made in house
# Sequence (P29375 whole entry): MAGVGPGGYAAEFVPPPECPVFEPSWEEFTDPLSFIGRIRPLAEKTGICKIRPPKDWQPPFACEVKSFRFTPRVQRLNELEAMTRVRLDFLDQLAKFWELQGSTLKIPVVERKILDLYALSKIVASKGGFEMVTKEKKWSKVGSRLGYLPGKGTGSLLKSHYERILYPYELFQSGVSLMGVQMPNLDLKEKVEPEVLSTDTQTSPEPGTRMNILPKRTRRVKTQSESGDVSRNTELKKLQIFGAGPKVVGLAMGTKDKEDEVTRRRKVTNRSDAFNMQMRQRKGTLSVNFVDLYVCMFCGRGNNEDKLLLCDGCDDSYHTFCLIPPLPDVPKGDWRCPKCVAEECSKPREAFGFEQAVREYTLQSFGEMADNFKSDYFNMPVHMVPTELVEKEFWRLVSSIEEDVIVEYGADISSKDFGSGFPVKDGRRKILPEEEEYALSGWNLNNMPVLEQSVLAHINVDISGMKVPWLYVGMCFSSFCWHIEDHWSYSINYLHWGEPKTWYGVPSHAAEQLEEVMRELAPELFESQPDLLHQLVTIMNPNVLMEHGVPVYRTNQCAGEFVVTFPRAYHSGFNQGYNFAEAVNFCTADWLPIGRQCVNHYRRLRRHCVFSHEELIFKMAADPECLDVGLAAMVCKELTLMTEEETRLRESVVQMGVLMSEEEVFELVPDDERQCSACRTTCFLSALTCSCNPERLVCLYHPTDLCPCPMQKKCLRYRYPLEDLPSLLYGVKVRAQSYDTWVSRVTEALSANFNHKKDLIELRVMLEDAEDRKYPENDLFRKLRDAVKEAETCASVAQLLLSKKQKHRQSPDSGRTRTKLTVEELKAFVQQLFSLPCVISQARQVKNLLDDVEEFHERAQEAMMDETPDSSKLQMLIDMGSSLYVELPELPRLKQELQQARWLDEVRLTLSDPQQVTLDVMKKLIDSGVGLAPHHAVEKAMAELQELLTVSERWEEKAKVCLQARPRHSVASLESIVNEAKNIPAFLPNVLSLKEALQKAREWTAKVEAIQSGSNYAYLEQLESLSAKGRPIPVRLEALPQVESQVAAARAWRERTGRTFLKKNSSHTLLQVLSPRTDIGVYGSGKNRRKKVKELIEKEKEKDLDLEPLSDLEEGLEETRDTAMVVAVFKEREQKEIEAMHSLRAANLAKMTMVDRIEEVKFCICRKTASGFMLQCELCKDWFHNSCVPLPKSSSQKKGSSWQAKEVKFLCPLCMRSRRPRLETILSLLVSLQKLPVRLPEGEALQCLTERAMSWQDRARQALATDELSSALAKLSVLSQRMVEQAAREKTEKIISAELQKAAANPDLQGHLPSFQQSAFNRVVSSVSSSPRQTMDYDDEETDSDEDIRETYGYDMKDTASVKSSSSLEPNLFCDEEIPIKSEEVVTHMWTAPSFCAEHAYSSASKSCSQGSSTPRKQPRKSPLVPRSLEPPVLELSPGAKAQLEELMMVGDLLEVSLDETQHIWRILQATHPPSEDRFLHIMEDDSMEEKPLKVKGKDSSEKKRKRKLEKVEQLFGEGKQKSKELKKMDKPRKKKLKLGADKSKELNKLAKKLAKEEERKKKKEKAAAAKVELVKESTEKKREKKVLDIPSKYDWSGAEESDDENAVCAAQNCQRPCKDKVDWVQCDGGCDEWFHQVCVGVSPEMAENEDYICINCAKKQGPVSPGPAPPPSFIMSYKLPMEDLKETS
# RUN DESCRIPTION: KDM5 enzyme assay, KDM5A HTRF (Example 463)
# Assay type: biochemical
# CONDITION DETAILS: compounds of Examples 1-432; read-out: Example 463 Assay KDM5A HTRF IC50
REPORTED METRIC: log10(IC50) (log10 of the value in nM)

>>> df
                                    molecule  assay_value
 0         C=Cc1c(C(C)C)c(=O)n2ncc(C#N)c2n1C         1.54
 1  CCC(C)n1cc(-c2[nH]c3c(C#N)cnn3c(=O)c2C(C)C)cn1 (stereo not drawn)         1.28
 2    CC(C)c1c(-c2ccoc2)[nH]c2c(C#N)cnn2c1=O         0.58
 3  CC(C)c1c(-c2ccc3c(c2)CCO3)[nH]c2c(C#N)cnn2c1=O         1.15
 4  CC(C)c1c(-c2cnn(C3CCC(F)(F)C3)c2)[nH]c2c(C#N)cnn2c1=O (stereo not drawn)         1.68
 5  COc1ccc(-c2[nH]c3c(C#N)cnn3c(=O)c2C(C)C)cc1Cl         1.11
 6  CC(C)c1c(-c2cnn(Cc3cccc(F)c3)c2)[nH]c2c(C#N)cnn2c1=O         0.78
 7  CC(C)c1c(-c2ccc(S(C)(=O)=O)cc2F)[nH]c2c(C#N)cnn2c1=O         1.32
 8  COc1cc(-c2[nH]c3c(C#N)cnn3c(=O)c2C(C)C)ccc1C#N         1.52
 9       Cc1c(-c2ccccc2)c(=O)n2ncc(C#N)c2n1C         4.40
10  CC(C)c1c(-c2cnn(C3CCCOC3)c2)[nH]c2c(C#N)cnn2c1=O (stereo not drawn)         1.36
11  C=CC(=O)N1CCC=C(c2[nH]c3c(C#N)cnn3c(=O)c2C(C)C)C1         1.67
12  CC(C)c1c(C2=CCCN(C)C2)[nH]c2c(C#N)cnn2c1=O         1.59
13    CC(C)c1c(-c2ccsc2)n(C)c2c(C#N)cnn2c1=O         1.67
14  CC(C)c1c(NC(=O)C2CC2)[nH]c2c(C#N)cnn2c1=O         1.26
15  CC(C)c1c(-c2cccc(N3CCOCC3)c2)[nH]c2c(C#N)cnn2c1=O         1.45
16  CC(C)c1c(-c2cccc(CCc3ccccc3)c2)[nH]c2c(C#N)cnn2c1=O         1.40
17  CC(C)c1c(-c2cccc(C(C)(C)O)c2)[nH]c2c(C#N)cnn2c1=O         1.59
